- measured.target: Mouse ACVR2A (mouse, UniProt P27038 20-135, limits assumed); also: test concentration or dose not given here
- Sequence (P27038 20-135 limits assumed): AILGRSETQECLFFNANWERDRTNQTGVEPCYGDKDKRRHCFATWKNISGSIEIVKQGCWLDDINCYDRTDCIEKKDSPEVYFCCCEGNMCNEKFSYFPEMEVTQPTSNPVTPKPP
- experimental.details: ELISA
Classify: TRUE when optical density is strictly less than 3 OD; FALSE when optical density is not.

binder: 373_A08 (antibody, V domains shown) VH: EVQLLESGGGLVQPGGSLRLSCAASGFTFDSYGMNWVRQAPGKGLEWVSNINYNGGYTGYADSVKGRFTISRDNSKNTLYLQMNSLRAEDTAVYYCARSANWHDTALDYWGQGTLVTVSS VL: DIQMTQSPSSLSASVGDRVTITCRASQSIVSYVNWYQQKPGKAPKLLIYAATSLASGVPSRFSGSGSGTDFTLTISSLQPEDFATYYCQQSYSLPLTFGGGTKVEIK
group.label: FALSE
--
binder: 368_E01 (antibody, V domains shown) VH: EVQLLESGGGLVQPGGSLRLSCAASGFTFSSYSMNWVRQAPGKGLEWVASINYNSGYTGYADSVKGRFTISRDNSKNTLYLQMNSLRAEDTAVYYCARSANWHDTHLDYWGQGTLVTVSS VL: DIQMTQSPSSLSASVGDRVTITCRASQSILSYLNWYQQKPGKAPKLLIYAVTSRHSGVPSRFSGSGSGTDFTLTISSLQPEDFATYYCQQSYSLPLTFGGGTKVEIK
group.label: TRUE
--
binder: 368_H04 (antibody, V domains shown) VH: EVQLLESGGGLVQPGGSLRLSCAASGFTFSSYSMNWVRQAPGKGLEWVAGINYNSGYKGYADSVKGRFTISRDNSKNTLYLQMNSLRAEDTAVYYCAKSANWHDTHLDYWGQGTLVTVSS VL: DIQMTQSPSSLSASVGDRVTITCRASQSIVSYVNWYQQKPGKAPKLLIYAATSRASGVPSRFSGSGSGTDFTLTISSLQPEDFATYYCQQSYDSPLTFGGGTKVEIK
group.label: TRUE
--
binder: 374_B12 (antibody, V domains shown) VH: EVQLLESGGGLVQPGGSLRLSCAASGFTFDSYSMNWVRQAPGKGLEWVAGINYNGGYTGYADSVKGRFTISRDNSKNTLYLQMNSLRAEDTAVYYCARSANWHDTHLDYWGQGTLVTVSS VL: DIQMTQSPSSLSASVGDRVTITCRASQSISSYLNWYQQKPGKAPKLVIYAATSRASGVPSRFSGSGSGTDFTLTISSLQPEDFATYYCQQSYDNPLTFGGGTKVEIK
group.label: FALSE

Values were extracted from patent US20210380703A1.
